src = PubChem BioAssay (NCI)

tested on: OVCAR-4 ovarian; assay: NCI tumour cell line growth inhibition, 48 h
reported_endpoint: TGI

Example compounds with recorded TGI:
CCc1c2c(nc3cc4c(c(N)c13)OCO4)-c1cc3c(c(=O)n1C2)COC(=O)[C@]3(O)CC	> 100 µM
CC1=C(C#N)C23C(=O)c4ccccc4C(O)=C2C(=O)C=CC3(O)N1 (stereo unspecified)	4.16 µM
Nc1nc(Cl)cc(NCCCCCNc2cc(Cl)nc(N)n2)n1	> 100 µM
COc1ccc2c(c1)CCN=C2Cc1ccccc1CCCl	> 100 µM
COC(=O)[C@H]1[C@@H](O)[C@@]2(O)c3c(OC)cc(O[C@@H]4O[C@@H]([C@H](O)CO)CO[C@H]4OC)cc3O[C@@]2(c2ccc(OC)cc2)[C@@H]1c1ccccc1	0.0484 µM

Qu. Hi! What's the reported TGI for N=c1oc2c(Br)cc(Br)cc2cc1C(=O)Nc1ccccn1 on OVCAR-4 ovarian?
Ans. > 100 µM
